species: Bos taurus; test: Electromyographic activity is measured as mean of the ratio of the height of the muscle action potential generated by the tenth impulse to the initial impulse in bovine thymus extracts at 10 mg; format: functional, Muscle tissue
Where a SMILES comes first, the peptide text is derived from it.

{"columns": ["compound", "Mean"],
 "data": [
  ["CC(C)[C@H](NC(=O)[C@H](CC(=O)O)NC(=O)[C@H](CCCCN)/N=C(\\S)[C@@H](N)CCCN=C(N)N)C(=O)N[C@@H](Cc1ccc(O)cc1)C(=O)O", 0.85],
  ["CC(C)[C@H](NC(=O)[C@H](CC(=O)O)NC(=O)[C@H](CCCCN)NC(=O)[C@@H](N)CCCN=C(N)N)/C(S)=N/[C@@H](Cc1ccc(O)cc1)C(=O)O", 0.84],
  ["CC(C)[C@H](NC(=O)[C@H](CC(=O)O)/N=C(\\S)[C@H](CCCCN)NC(=O)[C@@H](N)CCCN=C(N)N)C(=O)N[C@@H](Cc1ccc(O)cc1)C(=O)O", 0.83],
  ["CC(C)[C@H](/N=C(\\S)[C@H](CC(=O)O)NC(=O)[C@H](CCCCN)NC(=O)[C@@H](N)CCCN=C(N)N)C(=O)N[C@@H](Cc1ccc(O)cc1)C(=O)O", 0.89],
  ["CC(C)[C@H](NC(=O)[C@H](CC(=O)O)NC(=O)[C@H](CCCCN)NC(=O)[C@@H](N)CCCN=C(N)N)C(=O)N[C@@H](Cc1ccc(O)cc1)C(=O)O [THYMOPENTIN] (H-RKDVY-OH)", 0.83]
]}
